Target: Oseltamivir-resistant A/Texas/23/2012 neuraminidase (H275Y) (Influenza A virus (H1N1pdm09), UniProt R4SI91, H275Y)
Format: biochemical, Pandemic influenza A(H1N1) 2009 virus
Details: pH 5.1
value.type: IC50

cpd_smiles=CCC(CC)[C@H](NC(C)=O)[C@@H]1[C@H](O)[C@@H](C(=O)O)C[C@H]1N=C(N)N experimental_result="30.2 nM"
